This listing pairs compounds with measured Concentration.
experiment: Peptide hydrogel formation, vial-inverting method; assay type: physicochemical; details: concentration at which the state was recorded: lowest of 30, 60, 90, 120 mM that gave a gel; 120 mM for non-gelating peptides
Where a SMILES comes first, the peptide text is derived from it.
Write down the numeric answer in µM and omit the unit.

compound	uom	Concentration
CC[C@H](C)[C@H](N)C(=O)N[C@H](C(=O)N[C@H](C(=O)N[C@@H](Cc1ccc(O)cc1)C(=O)O)[C@@H](C)CC)C(C)C [IVIY] (H-IVIY-OH)	µM	60000

Could you share which Concentration value was measured for N[C@@H](Cc1c[nH]c2ccccc12)C(=O)N[C@@H](CCC(=O)O)C(=O)N[C@@H](Cc1ccccc1)C(=O)N[C@@H](Cc1ccccc1)C(=O)O [WEFF] (H-WEFF-OH) ?
30000

----------
assay: Transmission electron microscope (negative staining) of peptide assemblies; conditions: TEM, negative staining with uranyl acetate, 120 kV; line of the table gives 60 mM
Where a SMILES comes first, the peptide text is derived from it.
quantity: Morphology

                                   compound  endpoint_result
0  CC(C)C[C@H](NC(=O)[C@H](Cc1c[nH]c2ccccc12)NC(=O)[C@@H](NC(=O)[C@@H](N)CCCCN)C(C)C)C(=O)O [KVWL] (H-KVWL-OH)            fibre
1  NCCCC[C@H](NC(=O)[C@@H](N)Cc1ccccc1)C(=O)N[C@@H](Cc1ccccc1)C(=O)N[C@@H](Cc1c[nH]c2ccccc12)C(=O)O [FKFW] (H-FKFW-OH)            fibre
2  O=C(O)[C@H](Cc1ccc(O)cc1)NC(=O)[C@H](Cc1ccc(O)cc1)NC(=O)[C@H](Cc1c[nH]c2ccccc12)NC(=O)[C@@H]1CCCN1 [PWYY] (H-PWYY-OH)       aggregates
3  CC(C)C[C@H](NC(=O)[C@@H](NC(=O)CN)C(C)C)C(=O)N[C@@H](Cc1ccccc1)C(=O)O [GVLF] (H-GVLF-OH)              rod
4  CC[C@H](C)[C@H](N)C(=O)N[C@H](C(=O)N[C@H](C(=O)N[C@@H](Cc1ccc(O)cc1)C(=O)O)[C@@H](C)CC)C(C)C [IVIY] (H-IVIY-OH)       aggregates

Could you share which Morphology value was measured for CC(C)[C@H](NC(=O)[C@@H](NC(=O)[C@H](C)NC(=O)[C@@H](N)Cc1c[nH]c2ccccc12)C(C)C)C(=O)O [WAVV] (H-WAVV-OH) ?
fibre

Follow-up entry: CC(C)[C@H](N)C(=O)N[C@H](C(=O)N[C@H](C(=O)N[C@H](C(=O)O)C(C)C)C(C)C)C(C)C [VVVV] (H-VVVV-OH)
sheet

Follow-up entry: NCCCC[C@H](NC(=O)[C@@H](N)Cc1ccccc1)C(=O)N[C@@H](Cc1ccccc1)C(=O)N[C@@H](Cc1ccccc1)C(=O)O [FKFF] (H-FKFF-OH)
sheet

Follow-up entry: CC[C@H](C)[C@H](NC(=O)[C@@H](NC(=O)[C@@H](NC(=O)[C@@H](N)Cc1c[nH]c2ccccc12)C(C)C)[C@@H](C)CC)C(=O)O [WVII] (H-WVII-OH)
fibre

Follow-up entry: CC(C)C[C@H](NC(=O)[C@@H](N)CO)C(=O)N[C@H](C(=O)N[C@H](C(=O)O)C(C)C)C(C)C [SLVV] (H-SLVV-OH)
fibre

Follow-up entry: CC[C@H](C)[C@H](NC(=O)[C@@H](NC(=O)[C@@H](N)CC(N)=O)[C@@H](C)O)C(=O)N[C@@H](Cc1ccccc1)C(=O)O [NTIF] (H-NTIF-OH)
fibre

Follow-up entry: CC[C@H](C)[C@H](NC(=O)[C@@H](NC(=O)[C@@H](N)CC(C)C)C(C)C)C(=O)N[C@@H](Cc1ccccc1)C(=O)O [LVIF] (H-LVIF-OH)
fibre

Follow-up entry: CC[C@H](C)[C@H](NC(=O)[C@H](C)NC(=O)[C@@H](NC(=O)[C@@H](N)CC(C)C)C(C)C)C(=O)O [LVAI] (H-LVAI-OH)
fibre

----------
test: Transmission electron microscope (negative staining) of peptide assemblies; conditions: TEM, negative staining with uranyl acetate, 120 kV; line of the table gives 120 mM
Where a SMILES comes first, the peptide text is derived from it.
quantity: Morphology

See these solved cases before continuing.
molecule	quantity	endpoint_result
CC[C@H](C)[C@H](N)C(=O)N[C@@H](Cc1c[nH]c2ccccc12)C(=O)N[C@H](C(=O)N[C@H](C(=O)O)[C@@H](C)CC)[C@@H](C)CC [IWII] (H-IWII-OH)	Morphology	aggregates
CC[C@H](C)[C@H](NC(=O)[C@H](Cc1ccc(O)cc1)NC(=O)[C@H](Cc1ccc(O)cc1)NC(=O)[C@@H]1CCCN1)C(=O)O [PYYI] (H-PYYI-OH)	Morphology	aggregates
CC[C@H](C)[C@H](NC(=O)[C@@H](NC(=O)[C@H](C)N)C(C)C)C(=O)N[C@@H](CCC(N)=O)C(=O)O [AVIQ] (H-AVIQ-OH)	Morphology	aggregates
N[C@@H](Cc1c[nH]c2ccccc12)C(=O)N[C@@H](Cc1c[nH]c2ccccc12)C(=O)N[C@@H](CS)C(=O)N1CCC[C@H]1C(=O)O [WWCP] (H-WWCP-OH)	Morphology	aggregates

Moving on to the next molecule.
Could you share which Morphology value was measured for CSCC[C@H](NC(=O)[C@@H](N)CCC(N)=O)C(=O)N[C@H](C(=O)N[C@H](C(=O)O)C(C)C)C(C)C [QMVV] (H-QMVV-OH) ?
aggregates

----------
experiment: Peptide hydrogel formation, vial-inverting method; format: physicochemical; conditions: concentration at which the state was recorded: lowest of 30, 60, 90, 120 mM that gave a gel; 120 mM for non-gelating peptides
Where a SMILES comes first, the peptide text is derived from it.
quantity: Concentration (µM)
Write down the numeric answer in µM and omit the unit.

See these solved cases before continuing.
compound	endpoint_result
O=C(O)[C@H](CS)NC(=O)[C@H](Cc1c[nH]c2ccccc12)NC(=O)[C@H](Cc1c[nH]c2ccccc12)NC(=O)[C@@H]1CCCN1 [PWWC] (H-PWWC-OH)	120000
N[C@@H](Cc1ccc(O)cc1)C(=O)N[C@@H](Cc1ccc(O)cc1)C(=O)N[C@@H](Cc1ccc(O)cc1)C(=O)N[C@@H](Cc1ccc(O)cc1)C(=O)O [YYYY] (H-YYYY-OH)	120000
CC(C)[C@H](NC(=O)[C@@H]1CCCN1)C(=O)N[C@@H](Cc1ccccc1)C(=O)N[C@@H](Cc1c[nH]c2ccccc12)C(=O)O [PVFW] (H-PVFW-OH)	60000
CC(C)C[C@H](N)C(=O)N[C@@H](CCCNC(=N)N)C(=O)N[C@@H](Cc1ccccc1)C(=O)N[C@@H](Cc1c[nH]cn1)C(=O)O [LRFH] (H-LRFH-OH)	120000
N[C@@H](CO)C(=O)N[C@@H](Cc1c[nH]c2ccccc12)C(=O)N[C@@H](Cc1ccc(O)cc1)C(=O)N[C@@H](Cc1ccccc1)C(=O)O [SWYF] (H-SWYF-OH)	120000
CC(C)C[C@H](NC(=O)[C@H](C)NC(=O)[C@@H](N)Cc1c[nH]c2ccccc12)C(=O)N[C@@H](Cc1c[nH]c2ccccc12)C(=O)O [WALW] (H-WALW-OH)	30000

Could you share which Concentration value was measured for C[C@H](NC(=O)[C@@H](N)Cc1ccccc1)C(=O)N[C@@H](Cc1ccccc1)C(=O)N1CCC[C@H]1C(=O)O [FAFP] (H-FAFP-OH) ?
120000

Follow-up entry: N[C@@H](Cc1c[nH]c2ccccc12)C(=O)N[C@@H](Cc1ccccc1)C(=O)N[C@@H](Cc1c[nH]cn1)C(=O)N1CCC[C@H]1C(=O)O [WFHP] (H-WFHP-OH)
120000

Follow-up entry: C[C@@H](O)[C@H](N)C(=O)N[C@@H](CCCNC(=N)N)C(=O)N[C@@H](Cc1ccccc1)C(=O)N[C@@H](CO)C(=O)O [TRFS] (H-TRFS-OH)
120000

Follow-up entry: CC(C)C[C@H](NC(=O)[C@H](CC(C)C)NC(=O)[C@H](CC(C)C)NC(=O)[C@@H](N)CC(C)C)C(=O)O [LLLL] (H-LLLL-OH)
30000

Follow-up entry: CC(C)C[C@H](NC(=O)[C@H](CC(C)C)NC(=O)[C@@H](N)CC(C)C)C(=O)N[C@@H](CO)C(=O)O [LLLS] (H-LLLS-OH)
30000

Follow-up entry: C[C@H](NC(=O)[C@H](Cc1ccc(O)cc1)NC(=O)[C@@H](N)Cc1ccccc1)C(=O)N[C@@H](Cc1ccc(O)cc1)C(=O)O [FYAY] (H-FYAY-OH)
120000

Values compiled from paper PMC10313671.
